# assayText: Quantitative High-Throughput drug screen in 47 multiple myeloma cell lines against the NCATS MIPE library collection: KMS34_JCRB cell viability assay (AID 1918985); further: nearly all actives have a fitted effect of over 40% in size
# conditionParameters: KMS34 myeloma viability, CellTiter-Glo ATP luminescence, 48 h; series mostly up to 45.8 µM
Results filed as inconclusive are left out. Calls of active or inactive are those of the source. The call rests on the fitted dose curve; in most records, active means well fitted cell-killing curve with a large enough effect; inconclusive means small, poorly fitted or top-dose-only effect, or effect the other way; inactive means no such curve, though single readings can be large or run the other way.
Possible outcomes: active, inactive

[
  {
    "compound": "O=C(O)CNC(=O)c1c(O)c2ccccc2n(Cc2ccccc2)c1=O",
    "cat": "inactive"
  },
  {
    "compound": "CC(C)N(CCNC(=O)CN1CCCC1=O)C(C)C",
    "cat": "inactive"
  },
  {
    "compound": "C[C@](O)(COc1ccc(C#N)cc1)C(=O)Nc1ccc(C#N)c(C(F)(F)F)c1",
    "cat": "inactive"
  },
  {
    "compound": "COc1cc2cc(c1Cl)N(C)C(=O)C[C@H](OC(=O)C(C)C)[C@]1(C)O[C@H]1[C@H](C)[C@@H]1C[C@@](O)(NC(=O)O1)[C@H](OC)C=CC=C(C)C2",
    "cat": "inactive"
  },
  {
    "compound": "NC1=NC(=O)N2CC12 (stereo unspecified)",
    "cat": "inactive"
  },
  {
    "compound": "CN(C)NC(=O)CCC(=O)O",
    "cat": "inactive"
  },
  {
    "compound": "COC[C@H]1OC(=O)c2coc3c2[C@@]1(C)C1=C(C3=O)[C@@H]2CC[C@H](O)[C@@]2(C)C[C@@H]1OC(C)=O",
    "cat": "active"
  },
  {
    "compound": "CCC(=O)OC1CCC2C3CCC4=CC(=O)CC[C@@]4(C)C3CC[C@]12C (stereo partly specified)",
    "cat": "inactive"
  },
  {
    "compound": "CC(=Cc1csc(C)n1)[C@@H]1C[C@H]2O[C@@H]2CCC[C@H](C)[C@@H](O)[C@@H](C)C(=O)C(C)(C)[C@@H](O)CC(=O)O1",
    "cat": "inactive"
  },
  {
    "compound": "COc1ccc2c(c1)[C@]13CCCCC1C(C2)N(C)CC3 (stereo partly specified)",
    "cat": "inactive"
  },
  {
    "compound": "CN1[C@H]2CC(O)C[C@H]1[C@H]1O[C@H]12 (stereo partly specified)",
    "cat": "active"
  }
]

* * *

# assayText: qHTS for identification of novel therapeutic agents for treatment of microphthalmiaassociated transcription factor (MiT) renal cell carcinoma (RCC) (AID 1963991);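 further: curves scaled with 100% = DMSO viability and 0% = empty wells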
# conditionParameters: TFE3-RCC viability, CellTiter-Glo, 48 h; measured here: UOK124 Z-AUC; stronger effect = lower value
Results filed as inconclusive are left out.
In this section we review reported z-score values for a set of compounds.
quantity: z-score

[
  {
    "compound": "COc1cccc2c1[C@]13CCN(CC4CC4)[C@H](C2)[C@]1(OC)CCC(=O)C3",
    "assayResult": 0.387
  },
  {
    "compound": "Clc1ccccc1C(c1ccccc1)(c1ccccc1)n1cccn1",
    "assayResult": 0.841
  },
  {
    "compound": "O=S(=O)(F)Cc1ccccc1",
    "assayResult": -1.89
  },
  {
    "compound": "CC(C)[C@]12O[C@@H]1[C@@H]1O[C@]13[C@]1(O[C@H]1C[C@@H]1C4=C(CC[C@@]13C)C(=O)OC4)[C@H]2O",
    "assayResult": -3.26
  },
  {
    "compound": "CCC(=O)OC1CCC2C3CCC4=CC(=O)CC[C@@]4(C)C3CC[C@]12C (stereo partly specified)",
    "assayResult": 0.282
  },
  {
    "compound": "CN(C)NC(=O)CCC(=O)O",
    "assayResult": 0.666
  }
]

* * *

# assayText: Quantitative High-Throughput drug screen in 47 multiple myeloma cell lines against the NCATS MIPE library collection: Karpas25_ECACC cell viability assay (AID 1918968; further: nearly all actives have a fitted effect of over 35% in size)
# conditionParameters: Karpas25 myeloma viability, CellTiter-Glo ATP, 48 h; series mostly up to 45.8 µM
Records with an inconclusive call do not appear. Active and inactive are the calls of the source. Calls come from the whole dose curve; as a rule, active = well fitted cell-killing curve with a large enough effect; inconclusive = small, poorly fitted or top-dose-only effect, or effect the other way; inactive = no such curve, though single readings can be large or run the other way.
Outcome codes: active, inactive

[
  {
    "smilesData": "CCCCCC[C@H]1C(=O)O[C@H](C)[C@H](NC(=O)c2cccc(NC=O)c2O)C(=O)O[C@@H](C)[C@@H]1OC(=O)CC(C)C",
    "cat": "active"
  },
  {
    "smilesData": "C#C[C@]1(O)C=C[C@@H]2[C@@H]3CCC4=CC(=O)CC[C@@H]4[C@H]3CC[C@@]21CC",
    "cat": "inactive"
  },
  {
    "smilesData": "Oc1ccc2c3c1O[C@H]1c4[nH]c5c(c4C[C@@]4(O)[C@@H](C2)N(CC2CC2)CC[C@]314)C[C@@]1(O)[C@H]2Cc3ccc(O)c4c3[C@@]1(CCN2CC1CC1)[C@H]5O4",
    "cat": "inactive"
  },
  {
    "smilesData": "C=CCON=C(C[C@H]1O[C@@H]2O[C@]3(C)CC[C@@H]4[C@H](C)CC[C@@H]([C@H]1C)[C@@]24OO3)[C@H]1O[C@@H]2O[C@]3(C)CC[C@H]4[C@H](C)CC[C@@H]([C@@H]1C)[C@@]24OO3",
    "cat": "active"
  },
  {
    "smilesData": "C[C@]12Cc3cn[nH]c3C[C@@H]1CC[C@@H]1[C@H]2CC[C@@]2(C)[C@H]1CC[C@]2(C)O",
    "cat": "inactive"
  },
  {
    "smilesData": "CCN1CCN(C(=O)Cc2ccc(Nc3ncc(F)c(Nc4ccc(C(=O)Nc5ccccc5Cl)cc4)n3)cc2)CC1",
    "cat": "active"
  },
  {
    "smilesData": "CN1CCN(c2ccc([N+](=O)[O-])c3no[n+]([O-])c23)CC1",
    "cat": "active"
  },
  {
    "smilesData": "C[C@@]12OC(=O)[C@]1([C@@H](O)[C@@H]1C=CCCC1)NC(=O)[C@H]2CCCl",
    "cat": "active"
  },
  {
    "smilesData": "O=C(O)CNC(=O)c1c(O)c2ccccc2n(Cc2ccccc2)c1=O",
    "cat": "inactive"
  },
  {
    "smilesData": "O=c1cccc2n1CC1CNC[C@H]2C1",
    "cat": "active"
  },
  {
    "smilesData": "Cc1[nH]nc2ccc(-c3cncc(OC[C@@H](N)Cc4c[nH]c5ccccc45)c3)cc12",
    "cat": "active"
  }
]

* * *

# assayText: Cell Proliferation Assay against the HBL1 Cell Line (AID 651646);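 further: cells exposed to compound for 48 h before reading; 100% = DMSO and 0% = 9.2 µM bortezomib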
# conditionParameters: HBL1 DLBCL cells; at 46.1 µM (top of the series) unless noted
Listed here are compounds together with their documented viability, percent of control.

[
  {
    "smilesData": "CC(=O)Nc1ccc(OC[C@](C)(O)C(=O)Nc2ccc([N+](=O)[O-])c(C(F)(F)F)c2)cc1",
    "viability, percent of control [%]": 96.7
  },
  {
    "smilesData": "O=C(Oc1ccc([N+](=O)[O-])cc1)N1CCC(C(O)(c2ccc3c(c2)OCO3)c2ccc3c(c2)OCO3)CC1",
    "viability, percent of control [%]": 72
  },
  {
    "smilesData": "COc1ccc2c(c[n+](C)c3c4cc5c(cc4ccc23)OCO5)c1OC",
    "viability, percent of control [%]": 4.88
  },
  {
    "smilesData": "Nc1nc(-c2nn(Cc3ccccc3F)c3ncccc23)nc(N)c1N1CCOCC1",
    "viability, percent of control [%]": 114
  },
  {
    "smilesData": "CC(C)[C@]12O[C@H]1[C@@H]1O[C@]13[C@]1(O[C@H]1C[C@H]1C4=C(CC[C@@]13C)C(=O)OC4)[C@@H]2O",
    "viability, percent of control [%]": 35
  },
  {
    "smilesData": "C=CCON=C(C[C@H]1O[C@@H]2O[C@]3(C)CC[C@@H]4[C@H](C)CC[C@@H]([C@H]1C)[C@@]24OO3)[C@H]1O[C@@H]2O[C@]3(C)CC[C@H]4[C@H](C)CC[C@@H]([C@@H]1C)[C@@]24OO3",
    "viability, percent of control [%]": 30.4
  },
  {
    "smilesData": "Cc1ccccc1-n1c(Cn2cnc3c(N)ncnc32)nc2cccc(C)c2c1=O",
    "viability, percent of control [%]": 62.6
  }
]

* * *

# conditionParameters: Ebola virus entry assay, reporter ratio channel; Channel type: primary
Active and inactive are the calls of the source. The rule behind the calls is not given here.
Labels: y = active, n = inactive

[
  {
    "molecule": "Nc1nc2ccc([N+](=O)[O-])cc2s1",
    "cat": "n"
  },
  {
    "molecule": "Nc1ccc(Cl)cc1N",
    "cat": "y"
  },
  {
    "molecule": "COc1ncnc(NS(=O)(=O)c2ccc(N)cc2)c1OC",
    "cat": "n"
  },
  {
    "molecule": "O=[N+]([O-])c1cccc(S(=O)(=O)NCCNS(=O)(=O)c2cccc([N+](=O)[O-])c2)c1",
    "cat": "n"
  },
  {
    "molecule": "CN1C(=O)c2ccccc2C1=O",
    "cat": "n"
  },
  {
    "molecule": "Cc1ccccc1N=Nc1ccc(N=Nc2c(O)ccc3ccccc23)c(C)c1",
    "cat": "n"
  },
  {
    "molecule": "Cn1c(NCCN(CCO)CCCc2ccc([N+](=O)[O-])cc2)cc(=O)n(C)c1=O",
    "cat": "n"
  },
  {
    "molecule": "CCN1CCN(c2cc3c(cc2F)c(=O)c(C(=O)O)cn3C2CC2)CC1",
    "cat": "n"
  },
  {
    "molecule": "NCCCC(N)(C(=O)O)C(F)F (configuration not stated)",
    "cat": "n"
  },
  {
    "molecule": "COC(=O)c1c(Cl)c(Cl)c(C(=O)OC)c(Cl)c1Cl",
    "cat": "n"
  },
  {
    "molecule": "C[N+](C)(C)CC(=O)O",
    "cat": "n"
  },
  {
    "molecule": "CCCCCCCCCCCCCC(=O)OC(C)C",
    "cat": "n"
  }
]

Each recorded value in this set is attributed to PubChem BioAssay (NCATS).
